biological target: CYP1A2 (Homo sapiens, UniProt P05177); construct: Pooled human microsomes and selective CYP probe substrates were used; from tissue; host or cells: pooled human liver microsomes; assay: Time-dependent inhibition of CYP1A2 in human liver microsomes; assay type: in vitro ADME; settings: pooled human liver microsomes; CYP1A2, 25 μM, human liver microsomes, time zero; read-out: % Activity NADPH T0
Sequence (P05177 whole entry): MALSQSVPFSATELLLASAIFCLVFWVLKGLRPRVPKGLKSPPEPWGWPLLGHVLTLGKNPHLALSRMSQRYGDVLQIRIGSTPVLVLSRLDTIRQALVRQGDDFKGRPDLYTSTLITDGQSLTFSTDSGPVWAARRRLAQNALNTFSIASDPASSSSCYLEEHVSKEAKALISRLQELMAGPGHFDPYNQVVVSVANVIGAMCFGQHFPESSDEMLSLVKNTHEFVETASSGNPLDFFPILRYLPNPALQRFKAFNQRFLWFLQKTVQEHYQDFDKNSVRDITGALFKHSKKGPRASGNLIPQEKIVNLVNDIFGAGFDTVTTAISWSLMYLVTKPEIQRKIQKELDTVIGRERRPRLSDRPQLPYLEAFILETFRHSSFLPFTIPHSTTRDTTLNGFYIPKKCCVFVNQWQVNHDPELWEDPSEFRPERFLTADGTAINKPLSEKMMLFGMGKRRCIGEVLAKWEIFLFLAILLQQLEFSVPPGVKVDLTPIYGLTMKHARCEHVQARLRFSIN
Assay endpoint: activity at 0 min, 25 µM

Answered cases to consult:
CC(C)N1CC(=O)N(Cc2ccc(Cl)c(F)c2)C2(CN(c3cccnn3)C2)C1=O | 82%
Cc1cc(CN2C(=O)CN([C@H]3CC[C@H](C)CC3)C(=O)C23CN(C(N)=O)C3)ccc1F | 97%
C[C@H]1CC[C@H](N2CC(=O)N(Cc3ccc(F)c(F)c3)C3(CN(C(N)=O)C3)C2=O)CC1 | 89%
C[C@H]1CC[C@H](N2CC(=O)N(Cc3ccc(F)c(Cl)c3)C3(CN(C(N)=O)C3)C2=O)CC1 | 81%
C[C@H]1CC[C@H](N2CC(=O)N(Cc3ccc(Cl)cc3)C3(CN(C(N)=O)C3)C2=O)CC1 | 85%

Would you kindly look at the next entry?
Record `CC(C)N1CC(=O)N(Cc2ccc(C(F)(F)F)cc2)C2(CN(c3cccnn3)C2)C1=O` . Reported activity at 0 min, 25 µM: 88%
